Overview of reported T/C across a group of compounds:
test system: nude mice, HT29 intrarenal xenograft, tumor weight T/C; experiment: NCI In Vivo Anticancer Drug Screen. Data for tumor model HT29;CX-1 Human Adenocarcinoma (MER+) (intrarenal inoculation) in NU/NU Swiss (nude) mice; conditions: endpoint: mean tumor weight change; dose: 1600.0 mg/kg/injection; schedule: Q04DX004 (sc); vehicle: saline; higher = larger tumour
Results filed as inconclusive are left out.
propertyName: T/C

> print(dat)
                                   compound         datavalue
1                      NCCc1cc(O)c(O)c(O)c1   61 % of control
2  Cc1cn(C2CC(O)C(CO)O2)c(=O)[nH]c1=O (centres undefined)  102 % of control
3  N=c1ccn2c(n1)OC1C(O)C(CO)OC12 (centres undefined)   36 % of control
4  CN(C)[C@@H]1C(=O)C(C(N)=O)=C(O)[C@@]2(O)C(=O)C3=C(O)c4c(O)ccc(Cl)c4[C@@](C)(O)[C@H]3C[C@@H]12   66 % of control

* * *

system: nude mice, HT29 intrarenal xenograft, tumor weight T/C; assay: NCI In Vivo Anticancer Drug Screen. Data for tumor model HT29;CX-1 Human Adenocarcinoma (MER+) (intrarenal inoculation) in NU/NU Swiss (nude) mice; conditions: endpoint: mean tumor weight change; dose: 225.0 mg/kg/injection; schedule: Q04DX004 (sc); vehicle: saline with Tween-80; higher = larger tumour
Records with an inconclusive call do not appear.
propertyName: T/C

> print(dat)
                                    compound  propertyname         datavalue
 1  CCCCCCCCCCCCCCCCCCCCCC(=O)Nc1ccn(C2OC(CO)C(O)C2O)c(=O)n1 (stereo unspecified)           T/C   65 % of control
 2   COC(=O)CC(N)C(=O)O (stereo unspecified)           T/C  103 % of control
 3              CC(=O)Nc1ccc(S(=O)(=O)CO)cc1           T/C   73 % of control
 4      CCOC(=O)CNC(=O)CCCCSc1ncnc2nc[nH]c12           T/C  162 % of control
 5         NC(=S)N/N=C\c1ncccc1OCc1cccc(N)c1           T/C  220 % of control
 6           O=S(=O)(c1ccccc1)N1CN2CCN(C2)C1           T/C   58 % of control
 7   Oc1cc2ccccc2c(-c2c(O)c(O)cc3ccccc23)c1O           T/C  101 % of control
 8  CCOC(=O)c1cn(C)c2c1C(O)=C(C(=O)OC)CC(=O)N2           T/C   95 % of control
 9  COC(=O)C(Cl)(Cl)N=Nc1c(Cl)cc(Cl)c(C)c1Cl           T/C   87 % of control
10  CC(=O)NC(Cc1ccc(F)cc1)C(=O)O (stereo unspecified)           T/C  108 % of control
11  N#CCCSC(=S)C1CCCC1=N (stereo unspecified)           T/C  104 % of control

* * *

Overview of reported T/C across a group of molecules:
tested on: nude mice, HT29 intrarenal xenograft, tumor weight T/C; test: NCI In Vivo Anticancer Drug Screen. Data for tumor model HT29;CX-1 Human Adenocarcinoma (MER+) (intrarenal inoculation) in NU/NU Swiss (nude) mice; conditions: endpoint: mean tumor weight change; dose: 400.0 mg/kg/injection; schedule: Q04DX004 (sc); vehicle: Klucel (hydroxypropylcellulose) (HPC); higher = larger tumour
Inconclusive results are not listed.
propertyName: T/C

> print(dat)
                                   molecule  propertyname         datavalue
1                               O=Cc1ccccc1           T/C  107 % of control
2     O=c1[nH]c(=O)c2nc(-c3cccnc3)cnc2[nH]1           T/C  102 % of control
3  CCCCCCCCCCCCCCC/C([O-])=N/[N+](C)(C)CC(C)O (centres undefined)           T/C  110 % of control
4  Cc1ccc(NCC2(/N=C/c3ccccc3)OC(CO)C(O)C2O)cc1 (centres undefined)           T/C   70 % of control
5      CC1=NNC(=O)C1CCO (centres undefined)           T/C   44 % of control
6  S=C(Nc1ccc(Cl)c(Cl)c1)N1c2ccccc2-n2cccc2C1c1cccnc1 (centres undefined)           T/C  114 % of control
7  O=C1CC2(C(=O)N1CN1CCCCC1)c1ccccc1-c1ccccc12           T/C   69 % of control
8       O=[N+]([O-])c1ccc(-n2[nH]nnc2=S)cc1           T/C   96 % of control
9  CCCCc1ccc(-n2c(C)c(COC(=O)NC)c(COC(=O)NC)c2C)cc1           T/C   49 % of control
